procedure-text: Cell viability assay (MTT)
run-parameters: mouse, c2c12 cells
Where a SMILES comes first, the peptide text is derived from it. The star is where a group is joined. Cbz = O=C(OCc1ccccc1)*
result-type: MNTC at 24 h (nM)
Supply the numeric figure in nM, leaving out any unit text.

CC(C)C[C@@H](C=O)NC(=O)[C@H](CC(C)C)NC(=O)[C@H](CC(C)C)NC(=O)OCc1ccccc1 [MG-132] (Cbz-Leu-Leu-Leu-aldehyde) :: 25

Input line: Field request: MNTC at 24 h | item: CC(=O)c1c(C)c2cnc(Nc3ccc(N4CCNCC4)cn3)nc2n(C2CCCC2)c1=O [palbociclib]
Output line: 5000

Input line: Give the measured MNTC at 24 h of Cc1c(C)c2c(c(C)c1O)CCC(C)(COc1ccc(CC3SC(=O)NC3=O)cc1)O2 (centres unmarked) [troglitazone] .
Output line: 500

Input line: Form field: reported MNTC at 24 h of CC(C)(Oc1ccc(Cl)cc1)C(=O)O [clofibric-acid, clofibric acid]
Output line: 5000

Input line: Look up MNTC at 24 h: CC1=C(CO)C(=O)OC(C(C)C2CCC3C4CC5OC56C(O)C=CC(=O)C6(C)C4CCC23C)C1 (centres unmarked) [Withaferin-A, withaferin-A]
Output line: 50
